Quick reference: liver cell % of control of the listed items.
assay: kinase inhibitors against Plasmodium liver-stage infection, cell-based, known kinase inhibitor set, luminescence, hepatoma host viability (AID 624392); settings: Plasmodium liver stage in hepatoma cells, luciferase luminescence, concentration not given here; measured here: host liver cell viability;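 note: infected cells incubated roughly two days before readout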
Report as: number unit

Cn1cc(C2=C(NN3CCOCC3)C(=O)NC2=O)c2ccccc21 : 102%
CCOc1ccc2c(-c3ccnc(Nc4cc(OC)cc(C(F)(F)F)c4)n3)cnn2n1 : 65.9%
COc1cc(N2CCN(C(C)C)CC2)ccc1Nc1nc(Nc2cccc3ncccc23)c2cc[nH]c2n1 : 96.4%

Query: Dear colleague, I am looking for the recorded liver cell % of control of the following compound: CS(=O)(=O)Nc1cccc(-c2ccc3c(NC(=O)C4CC4)n[nH]c3c2)c1
Result: 89.6%

Query: Another compound: O=C1NC(=NCc2ccccc2Br)SC1=Cc1ccc2ncccc2c1
Result: 130%

Query: Another compound: O=c1c(Oc2ccc(F)cc2F)cc2cnc(NC3CCOCC3)nc2n1CCCO
Result: 122%

Query: Another compound: COc1cc(F)c(F)cc1C(=O)c1cnc(NC2CCN(S(C)(=O)=O)CC2)nc1N
Result: 107%

Query: Another compound: CCS(=O)(=O)c1ccc(OC)c(Nc2ncc(-c3cccc(-c4ccccc4F)c3)o2)c1
Result: 111%

Query: Another compound: CCc1cccc(CC)c1/C=C/c1cncc(C(=O)NC)c1
Result: 170%

Query: Another compound: N#Cc1c(NC(=O)c2ccccc2F)sc2c1CCCC2
Result: 160%

###

assay: HCT116 colon cancer cell growth inhibition, primary screen, CellTiter-Glo luminescence, NPC library (AID 1117342); details: at 20 µM (top of the series)
The source made the active and inactive calls.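 How the source made its calls: active means compounds that lower survival of HCT116 colon cancer cells in the luminescence readout, no numeric limit stated; inactive means the rest.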
// allowed return values: yes (1) = active, no (0) = inactive

// below: answered molecules
C=C(CC)C(=O)c1ccc(OCC(=O)O)c(Cl)c1Cl : no (0)
COc1ccc2cc1Oc1cc3c(cc1OC)CC[N+](C)(C)[C@H]3Cc1ccc(cc1)Oc1c(OC)c(OC)cc3c1[C@@H](C2)[N+](C)(C)CC3 : no (0)
CN(C)CCN1CCN(c2cccc(Cl)c2)C1=O : yes (1)
COC(=O)CCC(=O)CN : no (0)
Cc1cc(CC(=O)O)c(C)n1-c1ccc(Cl)cc1 : no (0)

Query: # lookup: test call for CCCc1c2oc(C(=O)O)cc(=O)c2cc2c(=O)cc(C(=O)O)n(CC)c12
Result: no (0)

Query: Another molecule: NS(=O)(=O)c1cc2c(cc1Cl)NCNS2(=O)=O
Result: no (0)

Query: Another molecule: CCC(Cc1c(I)cc(I)c(O)c1I)C(=O)O (configuration not stated)
Result: no (0)

Query: Another molecule: O=C(O)CCCc1ccccc1
Result: no (0)

Query: Another molecule: O=C1OC2(c3ccccc31)c1cc(Br)c(O)c(Br)c1Oc1c2cc(Br)c(O)c1Br
Result: no (0)

Query: Another molecule: CCc1nc(N)nc(N)c1-c1ccc(Cl)cc1
Result: yes (1)

Query: Another molecule: CC[C@H](C)C(=O)O[C@H]1C[C@H](O)C=C2C=C[C@H](C)[C@H](CC[C@@H](O)C[C@@H](O)CC(=O)O)[C@H]21
Result: no (0)
